Readings of pIC50 for the listed compounds
- test-target: Mtb Pks13-TE domain (wild-type) (Mycobacterium tuberculosis, UniProt I6X8D2)
- Sequence (I6X8D2 1451-1733): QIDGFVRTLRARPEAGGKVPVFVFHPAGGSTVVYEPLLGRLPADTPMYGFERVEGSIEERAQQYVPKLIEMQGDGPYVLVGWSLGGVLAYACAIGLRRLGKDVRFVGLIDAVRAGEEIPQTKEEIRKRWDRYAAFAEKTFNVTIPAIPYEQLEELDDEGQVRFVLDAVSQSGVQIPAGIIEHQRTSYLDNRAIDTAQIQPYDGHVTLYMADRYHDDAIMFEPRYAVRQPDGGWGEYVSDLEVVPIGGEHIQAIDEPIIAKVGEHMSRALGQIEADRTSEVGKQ
- procedure-summary: biochemical
- Type: biochemical
- applied-conditions: Mtb Pks13-TE domain; mean ± s.d. of triplicates; read-out: IC50
To interpret pIC50, take it as minus log10 of a concentration measured in moles per litre.

Example entries and their recorded answers appear below.
What the record says about `O=C(O)c1c(-c2ccccc2)oc2ccc(O)c(CN3CCCCC3)c12` : pIC50 is 5.18

What the record says about `CCOC(=O)c1c(-c2ccccc2)oc2ccc(O)c(CN3CCOCC3)c12` : pIC50 is 6.15

What the record says about `CCOC(=O)c1c(-c2ccccc2)oc2cccc(CN3CCCCC3)c12` : pIC50 is 5.70

What the record says about `CCOC(=O)c1c(-c2ccccc2)oc2ccc(O)c(CC3CCCCC3)c12` : pIC50 is 4.71

---
What the record says about `CNC(=O)c1c(-c2ccccc2)oc2ccc(O)c(CN3CCCCC3)c12` : pIC50 is 6.54

What the record says about `CCOC(=O)c1c(-c2ccccc2)oc2ccc(O)c(CN3CCCC3)c12` : pIC50 is 6.62

----------
- Test system: Mtb strain mc^27000
- procedure-summary: microbe, parasite or virus in culture
- Type: cell-based, Mycobacterium tuberculosis
- applied-conditions: Mycobacterium tuberculosis, Mtb mc^27000, liquid medium, 96-well plates; read-out: MIC
MIC less than 6 µM is class 1; MIC greater than or equal to 6 µM is class 0.

Solved cases below.
Q: Given the entry CCOC(=O)c1c(-c2ccc(O)c(F)c2)oc2ccc(O)c(CN3CCCCC3)c12 [compound 59] , would its reported MIC be below 6 µM?
A: class 1

Q: Given the entry CNC(=O)c1c(-c2ccc(F)cc2)oc2cc(O)cc(CCN[C@H](CO)Cc3cnc[nH]3)c12 [compound 261] , would its reported MIC be below 6 µM?
A: class 1

Q: Given the entry CCOC(=O)c1c(-c2ccccc2)oc2ccc(O)c(Cc3ccccc3)c12 [compound 10] , would its reported MIC be below 6 µM?
A: class 0

Q: Given the entry CNC(=O)c1c(-c2ccnc(O)c2)oc2cc(O)cc(CN3CCCCC3)c12 [compound 85] , would its reported MIC be below 6 µM?
A: class 0

Q: Given the entry CCOC(=O)c1c(-c2ccccc2)oc2cc(CN3CCCCC3)cc(OC)c12 [compound 35] , would its reported MIC be below 6 µM?
A: class 0

---
Q: Given the entry CNC(=O)c1c(-c2ccccc2)oc2cc(O)cc(CN3CCCCC3)c12 [compound 40] , would its reported MIC be below 6 µM?
A: class 0

Q: Given the entry CNC(=O)c1c(-c2ccccc2)oc2ccc(OC)c(C(O)c3ccccc3)c12 (stereo not drawn) [compound 20] , would its reported MIC be below 6 µM?
A: class 0

Q: Given the entry CCOC(=O)c1c(-c2ccc(C#N)cc2)oc2ccc(O)c(CN3CCCCC3)c12 [compound 62] , would its reported MIC be below 6 µM?
A: class 1

----------
- Tested on: Mtb strain mc^27000
- procedure-summary: microbe, parasite or virus in culture
- Assay type: cell-based, Mycobacterium tuberculosis
- applied-conditions: Mycobacterium tuberculosis, Mtb mc^27000, liquid medium, 96-well plates; read-out: MIC
MIC less than 4 µM is condition met; MIC greater than or equal to 4 µM is condition not met.

Solved cases below.
Q: Given the entry `CCOC(=O)c1c(-c2ccccc2)oc2ccc(O)c(CN3CCCCC3)c12` , would its reported MIC be below 4 µM?
A: condition met

Q: Given the entry `CNC(=O)c1c(-c2ccccc2)oc2cc(O)cc(CN3CCOCC3)c12` , would its reported MIC be below 4 µM?
A: condition not met

Q: Given the entry `CNC(=O)c1c(-c2ccc(NC(C)=O)cc2)oc2ccc(O)c(CN3CCCCC3)c12` , would its reported MIC be below 4 µM?
A: condition not met

Q: Given the entry `CNC(=O)c1c(-c2cccc(O)c2)oc2cc(O)cc(CN3CCCCC3)c12` , would its reported MIC be below 4 µM?
A: condition met

Q: Given the entry `CCOC(=O)c1c(-c2ccccc2)oc2ccc(O)c(C)c12` , would its reported MIC be below 4 µM?
A: condition not met

Q: Given the entry `CCOC(=O)c1c(-c2ccccc2)oc2ccc(O)c(CN3CCCCCC3)c12` , would its reported MIC be below 4 µM?
A: condition not met

Q: Given the entry `CCOC(=O)c1c(-c2ccc(O)cc2)oc2ccc(O)c(CCCN3CCC3)c12` , would its reported MIC be below 4 µM?
A: condition met

Q: Given the entry `CNC(=O)c1c(-c2ccc(F)cc2)oc2ccc(O)c(CN3CCCCC3)c12` , would its reported MIC be below 4 µM?
A: condition not met

Below: the item to evaluate.
Q: Given the entry `OCc1c(-c2ccccc2)oc2ccc(O)c(CN3CCCCC3)c12` , would its reported MIC be below 4 µM?
A: condition not met
